# key: entry, value: Mean PDI
assay: LNP hydrodynamic diameter and polydispersity by DLS (Example 1 LNPs); type: physicochemical; conditions: LNPs prepared according to Example 1, total lipid to NA mass ratio 11.7
Could you give me the number in %? Just the number is fine.

CC/C=C\CCCCOC(CCC(=O)OCCCCCCN(CCO)CCCN(CCCCCCCCCOC(=O)C(CCCC)CCCCCC)CCCCCCCCCOC(=O)C(CCCC)CCCCCC)OCCCC/C=C\CC (stereo not shown) = 19.3
CC/C=C\CCCCOC(CCC(=O)OCCCCCCCN(CCO)CCN(CCCCCCCOC(=O)CCC(OCCCC/C=C\CC)OCCCC/C=C\CC)CCCCCCCOC(=O)CCC(OCCCC/C=C\CC)OCCCC/C=C\CC)OCCCC/C=C\CC = 9.4
CC/C=C\CCCCOC(CCC(=O)OCCCCCCCN(CCCCCCCOC(=O)CCC(OCCCC/C=C\CC)OCCCC/C=C\CC)CCCN(CCO)CCCCCCCC(=O)OCCCCCCCCC)OCCCC/C=C\CC = 15.4

Turning to the following compound.
Query: Suppose we examine the compound "CC/C=C\CCCCOC(CCC(=O)OCCCCCCCN(CCCCCCCOC(=O)CCC(OCCCC/C=C\CC)OCCCC/C=C\CC)CCN(CCCO)CCCCCCCC(=O)OCCCCCCCCC)OCCCC/C=C\CC" ; what Mean PDI value has been reported?
Result: 13.2
